Origin of measurements: the supplement of paper PMC9170038

- Tested on: MS2 coat protein
- assay name: apparent KD of MS2 coat protein; designed switch direction (-1 OFF switch, 1 ON switch): -1; higher = weaker reporter binding
- measurement setup: input ligand: none
quantity name: apparent KD of MS2 coat protein (nM)
Numbers only, in nM.

The following sequences have reported results that may help.
residue codes: AUAAUACAUGAGGAUCACCCAUGUGAGGAUAUGAGCCUACAUUCACGCAGAGAGAAGGUCAGAAGGCACUUGGU [Eternabot (L2) Solution 65] (Eterna round: R97, puzzle: Exclusion 1)
apparent KD of MS2 coat protein / nM: 63.3
//
residue codes: GAGUUAGCGUGUGGCACAUACAUGAGGAUCACCCAUGUUAGCUUAUAUAUUGCUCGUCUUAUAACAACACUUAACUG [Mod JX-Electric-eye5] (Eterna round: R97, puzzle: Sensor, turn-off variant 1)
apparent KD of MS2 coat protein / nM: 23.9
//
residue codes: AAGCAUUGCCAAAGGUAGUGCUUAACAUGAGGAUCACCCAUGUAGGAUAUGGUAGGCAAAGCUUACCAGAAGGACAUGAUAAUU [Mat - Exclusion NG 3 - Mod of JL - D14] (Eterna round: R96, puzzle: Exclusion NG 3)
apparent KD of MS2 coat protein / nM: 70.8
//
residue codes: UUGUUAUGUGUAGGAUAUGCGUAUUAUUAUUAUGCAGAAGGACAUGAGGAUCACCCAUGUGUAUUGUUAUUAUAUAUUAUAUAU [Title] (Eterna round: R96, puzzle: Exclusion NG 1)
apparent KD of MS2 coat protein / nM: 21.9

In the following, a different sequence is considered.
Lab request: please report apparent KD of MS2 coat protein under test system MS2 coat protein for AGUAGGAGAGGAUAUACAAGAAGUCGAAAGACUUCAACUCAACAUGAGGAUCACCCAUGUAGAAGGCUCCUACA [Omei Ex2 BD A5] (Eterna round: R97, puzzle: Exclusion 2) 17.9

----------
- Test system: MS2 coat protein
- assay name: apparent KD of MS2 coat protein; designed switch direction (-1 OFF switch, 1 ON switch): 1; higher = weaker reporter binding
- measurement setup: input ligand: microRNA oligo, concentration not stated
Category scheme (apparent KD of MS2 coat protein): Low = under 20 nM, Mid = from 20 nM up to 100 nM, High = 100 nM and over

residue codes: GGAGCCGGCCUAGGAUAUUUCAUAAAAACACAUGAGGAUCACCCAUGUAGGCCAGAAGGCCUUGGGAAGAAGGAGGUCGGCUCC [Loop Effect - C29] (Eterna round: R96, puzzle: Same State NG 2)
assigned label: Low

residue codes: CGCAUCCUUGUUACAUGAGGAUCACCCAUGUUUUCGAGUGGAGAGGAUAUCGUAACAGUAUUUUUCGAGAAGGCUCUAUAGUAU [JR_SSNG3_Sub081] (Eterna round: R96, puzzle: Same State NG 3)
assigned label: Mid

residue codes: CAGCGCUGUCGAGAGGAUAUGCGGUGAUGGACAUGAGGAUCACCCAUGUUAGCGACAGCAUCACGGCAGAAGGCUCUACCGCUGC [Soteed Omei mod 18] (Eterna round: R96, puzzle: Same State 2)
assigned label: Mid

residue codes: GUUACAUGAGGAUCACCCAUGUAUGUGUGGGAGUAAGUGUCUUAGGAUAUCUAUCAUUUGAUUUAAGAGAAGGAAGAUUGUUGU [JMF's solution 94] (Eterna round: R96, puzzle: Same State NG 3)
assigned label: Mid

residue codes: UUGUGUUUGCGAGGAUAUCGUUUGUUGAAGUUACGAGAAGGCGCUCUCAUUACAUGAGGAUCACCCAUGUCUUUGAUGCAUGAU [JR_SSNG1_Sub071] (Eterna round: R96, puzzle: Same State NG 1)
assigned label: Mid

residue codes: GGCCAGAGUCAAGGAUAUGCUACCGUUUCGGUAGCAGAAGGUGAUCACAUGAGGAUCACCCAUGUAUACGCUGGGAAGCGGGCC [JL SSNG1 3.65] (Eterna round: R96, puzzle: Same State NG 1)
assigned label: High

residue codes: AGUCCAGCCUGAGCUGGACAAAUGCUUGUACAUGAGGAUCACCCAUGUAUGUACAAGCUUUUUGCUCGUCUUAAUAA [JL zipper 68] (Eterna round: R96, puzzle: Sensor for hsa-mir-208a)
assigned label: Low

residue codes: GGUACAAAUACAGGAUAUGCUAUCCUUUGGGUAGCAGAAGGGUGGUAACAUGAGGAUCACCCAUGUGUGCCAGGGCGUGAGCCC [JL SSNG1 1.98] (Eterna round: R96, puzzle: Same State NG 1)
assigned label: High

Pending sequence:
Into which category would you place AACGGUCGACAAGGAUAUGGACGGACAGGUUUGCCUGUGCGGCUCACAUGAGGAUCACCCAUGUUCUAGAAGGUGUCACCAAGA [Tiinor] (Eterna round: R96, puzzle: Same State NG 2) ? High

----------
- System: K4 kissing-loop RNA reporter
- assay name: apparent KD of K4 kissing-loop reporter; higher = weaker reporter binding
- measurement setup: Eterna round: R107; input ligand: theophylline 20 uM
If the reported apparent KD of K4 kissing-loop reporter equals or exceeds 200 nM, assign true (1). If not, assign false (0).

residue codes: AGCGACUCGAAAGGGUCGCGGCUAAGGGAUACCAGUGAUGUUGGUCACCCUUGGCAGCCCAGAAGCCAAGCCACCAAAGGUGGCA [Omei KL Theo A Exc A v10]
assigned label: false (0)

Is the recorded value of apparent KD of K4 kissing-loop reporter equal to or greater than 200 nM for this sequence? AUUAAUAUCACGGCCGCCACUGAAUAUUGUUUUUAUAUUUAGAAUAAUUGCCAGUGAUGUUGGAUCAGGACCGGGUGAGUUUAUA [JR_SSTryptoB_Sub007] true (1)

Please check the record GGUAGCAUGGCGGCCGCCACUCAUGUAGAUACCUACAUAGUAAGCAGUGAUGUUGCUUUGUGGUUGAGGACCGGGCCAUGCUACC and state if its apparent KD of K4 kissing-loop reporter is at or above 200 nM. false (0)

Exam item: decide whether the reported apparent KD of K4 kissing-loop reporter for UGGGUGUAGUGAUGUUAUAUAGAGAGUGAUACCAGUUUAGAGAGGAACCCUUGGCAGCAUAGAAGAGUAUCAUUGGAGGAGGAGG [ExTheophyl.Aw] is at least 200 nM. true (1)

Exam item: decide whether the reported apparent KD of K4 kissing-loop reporter for GGAUAGGACAGAGGAUAUGGACAGUCUACAAAGUAGGCUGAAAAUCCUUGAAUGGAAGUGAUGUUUCUAGAAGGCUGUCCUAUCG [FmnBX 19 - #SwitchBubble #StaticStem #Palindromic] is at least 200 nM. false (0)

Answer whether apparent KD of K4 kissing-loop reporter of GAGAGCCCUGUAGGAUAUGAGUCUAGUGAUGUUAGGCGGUCCAUGCGCGUGGCGCGUUAUGCCCUUUUAGAAGGACAGGGCUCUC [#2 Exclusion - FMN B Attempt #20 (HarryS)] is greater than or equal to 200 nM. false (0)

Given UCGGACCCUGGAGGAUAUGAGUCGAGUGAUGUUCGGCGGUCCAUGCCGAUGCGGCGUUAUGCCCUUUUAGAAGGCCAGGGUCCGA [#2 Exclusion - FMN B Attempt #10 (HarryS)] , state whether its apparent KD of K4 kissing-loop reporter is at least 200 nM. true (1)

Decide: is the reported value of apparent KD of K4 kissing-loop reporter for AGAUGGCAGUGAUGUUGCUGUUGGAGGGAUAAGGAUAUUGGCUAAACAAGAAGGUAUCGGCGGCAUUGAGGAAUGGGAGGCGCCU [theeternabot_exclusion_KL_FMN_A_7] equal to or greater than 200 nM? true (1)

hey, is apparent KD of K4 kissing-loop reporter for this one >= 200 nM? CUGCAACAUAACUUCUUCGUCCUAGAAGACUAGGAUAUCAGGAAACUGAGAAGGAGUCUCUGCAGUGAUGUUGCAGUUAGGACGA [KL-SSFMN-A7] false (0)

Given CCUAUCUCAUACGAUACCAGUCAAUGAUCUUUGAUCAAUGCCAUCACCGAGUGAUGUUCGGACCCUUGGCAGCGUAUGGGAUAGG [whbob_Ex_Theo_B_sa102] , state whether its apparent KD of K4 kissing-loop reporter is at least 200 nM. true (1)

Please check the record UCCUAGACUUAGCUAGGUAUAUAAUACGAUACCAGUCUAGAGAUAGACCCUUGGCAGCGUAGGCAGUGAUGUUGCCACUAGCUGA [Theo B SS t7a] and state if its apparent KD of K4 kissing-loop reporter is at or above 200 nM. false (0)

----------
- Test system: K4 kissing-loop RNA reporter;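 further: bound reporter read as fluorescence of individual clusters on recovered sequencing chips by microscopy, with normalized cluster intensities fitted with a binding model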
- assay name: apparent KD of K4 kissing-loop reporter; higher = weaker reporter binding
- measurement setup: Eterna round: R107; input ligand: none
Assignment: determine reported apparent KD of K4 kissing-loop reporter for the given sequences.
Answers are plain numbers, in nM.

Record apparent KD of K4 kissing-loop reporter for all entries; do not skip any.
1. UAUUAAUUGACGGCCGCCACUAUUGUGAUUUAUUUGUUUGAGUGAUGUUUUGAUGUUUGAUUUUGUAGGACCGGGUUAUGUGUUA [zwzcmullin]
2. GUUAUGGACCUUUUGAUCGUUCGUAGCGAUACCAGACAAUGGGCAGUCCCUUGGCAGCGCUAAUUGAGUGAUGUUCAAACGUGCA [theeternabot_exclusion_KL_Theo_A_46]
3. AGCGGCGCGCUGGAUACCAGUGUCCGACGCGUUAGUAUAGAUCCAAAGUGAUGUUUUGGUCACCCUUGGCAGCCACCUCUGUCGG [theeternabot_exclusion_KL_Theo_B_29]

[954, 680, 245]
